- test-details: Inhibition of alpha glucosidase at 1 mM using pNPG substrate incubated for 60 mins
Activity calls are given as the source filed them. No cut-off for these calls is given here.
quantity-name: inhibition

{"columns": ["molecule", "inhibition"],
 "data": [
  ["COc1ccc(C2CC(=O)c3c(O)cc(O)cc3O2)cc1OC (stereo unspecified)", "Active"],
  ["COc1ccc(C2CC(=O)c3c(O)cc(OC(C)=O)cc3O2)cc1O (stereo unspecified)", "Active"],
  ["CCC(=O)Oc1cc(O)c2c(c1)OC(c1ccc(OC)c(OC)c1)CC2=O (stereo unspecified)", "Active"],
  ["COc1ccc(C2CC(=O)c3c(O)cc(O)cc3O2)cc1O (stereo unspecified)", "Active"],
  ["COc1ccc(C2CC(=O)c3c(O)cc(OCc4ccccc4)cc3O2)cc1OC (stereo unspecified)", "53.3%"],
  ["CCC(=O)Oc1cc(O)c2c(c1)OC(c1ccc(OC)c(O)c1)CC2=O (stereo unspecified)", "Active"],
  ["COc1ccc(C2CC(=O)c3c(O)cc(OC(=O)c4ccccc4)cc3O2)cc1O (stereo unspecified)", "Active"],
  ["C[C@H]1O[C@H](O[C@H]2[C@H](O)[C@@H](O)[C@@H](O[C@H]3[C@H](O)[C@@H](O)C(O)O[C@@H]3CO)O[C@@H]2CO)[C@H](O)[C@@H](O)[C@@H]1N[C@H]1C=C(CO)[C@@H](O)[C@H](O)[C@H]1O (stereo partly specified)", "54.8%"]
]}

q: So what does the record say about inhibition for CCCCOc1cc(O)c2c(c1)OC(c1ccc(OC)c(OC)c1)CC2=O (stereo unspecified) ?
a: Active

q: What do you get for COc1ccc(C2CC(=O)c3c(O)cc(OCc4ccccc4)cc3O2)cc1O (stereo unspecified) ?
a: 55%

q: What do you get for COc1ccc(C2CC(=O)c3c(O)cc(OCCCCBr)cc3O2)cc1OC (stereo unspecified) ?
a: Active
